measured.target: Osh4 (Saccharomyces cerevisiae, UniProt P35844)
Construct: made in house; host or cells: E. coli BL21
experiment.notes: In vitro radioligand binding assay with [3H]-cholesterol
experimental.context: Osh4, pH 7.5, 100 pmol protein
endpoint.name: pKd
Note on pKd: it is the negative log10 of concentration, concentration in mol/L.

Qu. Please give the documented pKd of `CC(C)CCC[C@@H](C)[C@H]1CC[C@H]2[C@@H]3CC=C4C[C@@H](O)CC[C@]4(C)[C@H]3CC[C@]12C`
Ans. 5.64

###

measured.target: STARD1 (Homo sapiens, UniProt P49675)
Sequence (P49675 64-285): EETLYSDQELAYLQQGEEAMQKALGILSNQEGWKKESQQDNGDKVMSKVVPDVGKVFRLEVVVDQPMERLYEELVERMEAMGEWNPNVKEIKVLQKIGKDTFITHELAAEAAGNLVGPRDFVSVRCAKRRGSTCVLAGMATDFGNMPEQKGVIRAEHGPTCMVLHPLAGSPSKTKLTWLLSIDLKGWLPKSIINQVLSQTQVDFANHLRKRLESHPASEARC
Structures can show the parent of a compound that is named as a salt.
endpoint.name: pKd
FYI, pKd means -log10 of a concentration in mol per litre.

Qu. For STARD1 (Homo sapiens, UniProt P49675), give the measured pKd of the entry CC(C)CCC[C@@H](C)[C@H]1CC[C@H]2[C@@H]3CC=C4C[C@@H](OS(=O)(=O)O)CC[C@]4(C)[C@H]3CC[C@]12C [cholesterol sulfate]
Ans. 7.19

Hey, just so you know, these numbers are from paper PMC12493155.
